Recorded values, source ChEMBL document CHEMBL2163249.

# Target or test system: Acetylcholinesterase (Electrophorus electricus)
# Test conditions: at 2 mg/mL
# Description: Inhibition of electric eel AChE at 2 mg/ml by Ellman's method
Measured inhibition of individual entries

| Smiles text | inhibition |
| --- | --- |
| CN(C)c1ccc(O)c2c1C[C@H]1C[C@H]3[C@H](N(C)C)C(O)=C(C(N)=O)C(=O)[C@@]3(O)C(O)=C1C2=O | -0.24% |
| O=c1c(O)c(-c2ccc(O)cc2O)oc2cc(O)cc(O)c12 | 18.1% |
| O=C1c2ccccc2-n2c1nc1ccccc1c2=O | 35.3% |

Proceeding to the next compound to report its inhibition.
Prompt line: Given the compound NC[C@H]1O[C@H](O[C@H]2[C@H](O)[C@@H](O[C@H]3O[C@H](CO)[C@@H](O)[C@H](N)[C@H]3O)[C@H](N)C[C@@H]2N)[C@H](O)[C@@H](O)[C@@H]1O , what is its reported inhibition?
Response line: 17.6%
